# target.or.test.system: T1, HsLARP6(74-313) (Homo sapiens, UniProt Q9BRS8 74-313)
# T1 sequence: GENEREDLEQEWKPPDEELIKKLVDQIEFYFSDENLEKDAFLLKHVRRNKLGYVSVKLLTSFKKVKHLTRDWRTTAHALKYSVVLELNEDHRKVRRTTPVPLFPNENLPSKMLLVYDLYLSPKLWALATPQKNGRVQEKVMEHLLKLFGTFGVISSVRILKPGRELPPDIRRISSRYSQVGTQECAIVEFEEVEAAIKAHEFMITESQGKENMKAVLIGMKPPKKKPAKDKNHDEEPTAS
# procedure.details: ITC; ITC: 20 mM Tris pH 7.25, 100 mM KCl, 5 mM MgCl2, 1 mM DTT, 298 K; protein titrated into RNA
# condition.set: protein: recombinant; tags: N-terminal His6 (TEV-cleavable); stem-loop with internal bulge
parameter.measured: Kd

• CCACAAAGAGUCUACAUGUCUAGGGUCUAGACAUGUUCAGCUUUGUGG (structured_RNA) [48 nt RNA (collagen alpha1(I) 5' UTR SL)] = 26 nM
